Test system: OVCAR-8 ovarian
measurement_description: NCI-60 one-dose screen, 48 h
measurement_conditions: 10 µM unless noted
Experimental: Growth inhibition of the OVCAR-8 human tumor cell line is measured as a screen for anti-cancer activity. Cells are grown in 96 well plates and exposed to the test compound for 48 hours. Compounds are tested at a single concentration, which is 10^-5 M for most compounds. The reported endpoint is percent growth (GI% or GIPRCNT), where numbers from 0 - 100% represent growth inhibition, and numbers from -100% - 0 represent cell death. For example, a value of 40 represents 60% growth inhibition. […]
About 83,000 compounds went through this panel and 20% of them were active in at least one assay; those are over-represented in the sample as a whole. The source made the active and inactive calls. The calls were made as follows: active = growth percent below 10; inactive = the rest.
Possible outcomes: active, inactive

{"columns": ["structure_string", "tgt", "group"],
 "data": [
  ["c1cc(-c2nc3ccc4[nH]ncc4c3c3c2CCCC3)[nH]n1", "OVCAR-8 ovarian", "inactive"],
  ["CC1(C)[C@@H](O)CC[C@]2(C)[C@H]3CC[C@@H]4[C@H]5[C@H](C(=O)/C=C\\c6ccc([N+](=O)[O-])cc6)CC[C@]5(O)CC[C@@]4(C)[C@]3(C)CC[C@@H]12", "OVCAR-8 ovarian", "inactive"],
  ["COc1cc(OC)c(S(N)(=O)=O)cc1C(=O)/C=C/c1ccc(Cl)cc1", "OVCAR-8 ovarian", "active"],
  ["CC(C)(C)c1ccc(C(=O)Nc2sc3c(c2C(N)=O)CC/C(=N\\O)C3)cc1", "OVCAR-8 ovarian", "inactive"]
]}

Data origin: PubChem BioAssay (NCI)
